Reported Ratio IC50 values for a set of molecules
- assay_protocol: Selectivity index, ratio of IC50 for antiproliferative activity against human A549 cells to IC50 for antiproliferative activity against human MDA-MB-231 cells
- Assay type: functional
Form: value (number only, do not type unit).

> print(dat)
                            chemical.string  value.kind  obs.value
1  C[C@]12CC[C@H]3[C@@H](CCC4=CC(=O)C=C[C@@]43C)[C@@H]1CC[C@@H]2C(=O)NCCNC(=O)/C=C/c1cccc([N+](=O)[O-])c1  Ratio IC50        2.5
2  COc1ccc(/C=C/C(=O)NCCNC(=O)[C@H]2CC[C@H]3[C@@H]4CCC5=CC(=O)C=C[C@]5(C)[C@H]4CC[C@]23C)cc1  Ratio IC50        2.6
3  C[C@]12CC[C@H]3[C@@H](CCC4=CC(=O)CC[C@@]43C)[C@@H]1CC[C@@H]2C(=O)NCCNC(=O)/C=C/c1ccccc1  Ratio IC50        2.7
4  COc1ccccc1/C=C/C(=O)NCCNC(=O)[C@H]1CC[C@H]2[C@@H]3CCC4=CC(=O)CC[C@]4(C)[C@H]3CC[C@]12C  Ratio IC50       73.5

Now examine the next entry.
The molecule listed as `C[C@]12CC[C@H]3[C@@H](CCC4=CC(=O)C=C[C@@]43C)[C@@H]1CC[C@@H]2C(=O)NCCNC(=O)/C=C/c1ccccc1` shows Ratio IC50 equal to 4.6
